Record form. Attribute: pIC50. Fill in for each entry.
- assayed.system: Phosphatidylinositol 4,5-bisphosphate 3-kinase catalytic subunit delta isoform (Homo sapiens)
- Sequence (O00329 whole entry): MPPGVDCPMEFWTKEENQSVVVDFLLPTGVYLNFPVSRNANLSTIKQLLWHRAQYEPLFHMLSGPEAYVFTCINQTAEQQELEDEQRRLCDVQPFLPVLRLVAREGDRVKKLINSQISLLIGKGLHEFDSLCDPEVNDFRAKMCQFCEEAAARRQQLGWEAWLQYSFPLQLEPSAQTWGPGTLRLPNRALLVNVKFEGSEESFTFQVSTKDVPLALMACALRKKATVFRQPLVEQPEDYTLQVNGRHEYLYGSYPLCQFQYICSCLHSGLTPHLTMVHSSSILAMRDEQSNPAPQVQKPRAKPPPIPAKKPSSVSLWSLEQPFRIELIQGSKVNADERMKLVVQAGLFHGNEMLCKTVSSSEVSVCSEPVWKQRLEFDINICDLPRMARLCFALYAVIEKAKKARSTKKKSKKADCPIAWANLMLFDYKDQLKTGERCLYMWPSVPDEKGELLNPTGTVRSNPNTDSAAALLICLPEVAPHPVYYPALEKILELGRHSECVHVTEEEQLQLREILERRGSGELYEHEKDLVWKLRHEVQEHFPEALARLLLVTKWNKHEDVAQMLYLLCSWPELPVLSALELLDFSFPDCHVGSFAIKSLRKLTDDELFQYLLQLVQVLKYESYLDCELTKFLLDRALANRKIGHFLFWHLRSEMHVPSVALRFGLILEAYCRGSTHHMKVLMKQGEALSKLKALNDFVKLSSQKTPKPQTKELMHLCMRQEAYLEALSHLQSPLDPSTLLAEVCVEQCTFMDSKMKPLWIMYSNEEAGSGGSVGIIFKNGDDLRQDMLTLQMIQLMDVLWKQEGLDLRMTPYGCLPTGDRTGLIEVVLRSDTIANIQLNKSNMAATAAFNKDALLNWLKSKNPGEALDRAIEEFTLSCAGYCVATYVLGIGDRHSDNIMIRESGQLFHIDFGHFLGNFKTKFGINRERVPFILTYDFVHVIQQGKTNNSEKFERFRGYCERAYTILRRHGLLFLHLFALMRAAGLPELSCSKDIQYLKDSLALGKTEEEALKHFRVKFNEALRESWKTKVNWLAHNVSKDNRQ
- experiment.notes: Inhibition of N-terminal ploy-His-tagged human PI3Kdelta expressed in baculovirus-infected sf9 cells using PI(4,5)P2 as substrate after 15 mins by HTRF assay
// field semantics: pIC50 = negative decimal log of concentration (mol/L)

Query: Consider the molecule "Cc1cccc2c1CCN2C(=O)Cc1nc(N2CCOCC2)cc(=O)[nH]1" and give its measured pIC50.
Reply: 7.62

Query: Consider next the molecule CC1CN(C(=O)Cc2nc(N3CCOCC3)cc(=O)[nH]2)c2ccccc21 (racemic) in the same way.
Reply: 7.06

Query: Consider next the molecule "O=C(Cc1nc(N2CCOCC2)cc(=O)[nH]1)N1CCc2c(-c3cccnc3)cccc21" in the same way.
Reply: 8.15

Query: Consider next the molecule "CC1(C)Cc2ccccc2N1C(=O)Cc1nc(N2CCOCC2)cc(=O)[nH]1" in the same way.
Reply: 6.24

Query: Consider next the molecule "O=C(Cc1nc(N2CCOCC2)cc(=O)[nH]1)N1CCc2c(Br)cccc21" in the same way.
Reply: 7.26

---

- experiment.notes: Metabolic stability in mouse liver microsomes at 5 uM after 20 mins
- condition: microsomes
assay.readout: remaining at 20 min, 5 µM (%)
Lab book: enter the figure in %, no units written.

Query: Consider the compound "O=C(Cc1nc(N2CCOCC2)cc(=O)[nH]1)N1CCc2c(F)cccc21" and give its measured remaining at 20 min, 5 µM.
Reply: 9
